# target system: ROCK 1 (Homo sapiens)
Structures can show the parent of a compound that is named as a salt.
Categorize each record by its IC50 using class 0 (below 10 µM), class 1 (10 µM to below 40 µM), class 2 (40 µM or more)

{"compound": "OCc1cnc2ccc(NCCCN3CCOCC3)nn12 [Example 24, hydrochloride]", "answer label": "class 2"}
{"compound": "OCc1cnc2ccc(NCc3ccccn3)nn12 [Example 25, hydrochloride]", "answer label": "class 2"}
{"compound": "CCCC/C=C/c1cnc2ccc(N[C@H]3CC[C@H](O)CC3)nn12", "answer label": "class 1"}
{"compound": "c1cn2nc(NCCCN3CCOCC3)ccc2n1 [Example 35, hydrochloride]", "answer label": "class 2"}
{"compound": "COCc1cnc2ccc(NCc3ccccn3)nn12 [Example 34, hydrochloride]", "answer label": "class 2"}
{"compound": "COCCNc1ccc2ncc(C)n2n1", "answer label": "class 2"}
{"compound": "COc1ccccc1-c1cnc2ccc(NCc3ccccn3)nn12 [Example 2, fumarate]", "answer label": "class 2"}
{"compound": "c1cc2[nH]ncc2cc1-c1cnc2ccc(N3CCNCC3)nn12 [Example 51, dihydrochloride]", "answer label": "class 0"}
{"compound": "Cc1cnc2ccc(NCCCN3CCOCC3)nn12 [Example 16, fumarate]", "answer label": "class 2"}
{"compound": "CCCCCCc1cnc2ccc(NCCCN3CCOCC3)nn12 [Example 17, hydrochloride]", "answer label": "class 1"}
{"compound": "CCCC/C=C/c1cnc2ccc(NCCO)nn12 [Example 42, hydrochloride]", "answer label": "class 1"}
{"compound": "Cc1n[nH]c2ccc(-c3cnc4ccc(N5CCCNCC5)nn34)cc12 [Example 55, trihydrochloride]", "answer label": "class 0"}
{"compound": "CCCC/C=C/c1cnc2ccc(NCCN(CC)CC)nn12 [Example 40, hydrochloride]", "answer label": "class 2"}
{"compound": "Clc1cnc2ccc(NCCCN3CCOCC3)nn12 [Example 14, hydrochloride]", "answer label": "class 1"}
{"compound": "CCCC/C=C/c1cnc2ccc(NCc3ccccn3)nn12 [Example 9, fumarate]", "answer label": "class 0"}
{"compound": "C1=C(c2cnc3ccc(NCCCN4CCOCC4)nn23)CCCC1 [Example 20, hydrochloride]", "answer label": "class 2"}
{"compound": "CCCC/C=C/c1cnc2ccc(NCCN(C)C)nn12 [Example 8, fumarate]", "answer label": "class 2"}
{"compound": "CCCNc1ccc2ncc(-c3cc(C)cs3)n2n1", "answer label": "class 2"}
{"compound": "NC(=O)c1ccc(-c2cnc3ccc(N4CCCNCC4)nn23)cc1 [Example 58, dihydrochloride]", "answer label": "class 2"}

###

Quick reference for IC50 among some compounds
# target system: ROCK 2 (Homo sapiens, UniProt O75116)
# Construct: purchased Molecular Devices, Sunnyvale, Calif
# Sequence (O75116 whole entry, species assumed): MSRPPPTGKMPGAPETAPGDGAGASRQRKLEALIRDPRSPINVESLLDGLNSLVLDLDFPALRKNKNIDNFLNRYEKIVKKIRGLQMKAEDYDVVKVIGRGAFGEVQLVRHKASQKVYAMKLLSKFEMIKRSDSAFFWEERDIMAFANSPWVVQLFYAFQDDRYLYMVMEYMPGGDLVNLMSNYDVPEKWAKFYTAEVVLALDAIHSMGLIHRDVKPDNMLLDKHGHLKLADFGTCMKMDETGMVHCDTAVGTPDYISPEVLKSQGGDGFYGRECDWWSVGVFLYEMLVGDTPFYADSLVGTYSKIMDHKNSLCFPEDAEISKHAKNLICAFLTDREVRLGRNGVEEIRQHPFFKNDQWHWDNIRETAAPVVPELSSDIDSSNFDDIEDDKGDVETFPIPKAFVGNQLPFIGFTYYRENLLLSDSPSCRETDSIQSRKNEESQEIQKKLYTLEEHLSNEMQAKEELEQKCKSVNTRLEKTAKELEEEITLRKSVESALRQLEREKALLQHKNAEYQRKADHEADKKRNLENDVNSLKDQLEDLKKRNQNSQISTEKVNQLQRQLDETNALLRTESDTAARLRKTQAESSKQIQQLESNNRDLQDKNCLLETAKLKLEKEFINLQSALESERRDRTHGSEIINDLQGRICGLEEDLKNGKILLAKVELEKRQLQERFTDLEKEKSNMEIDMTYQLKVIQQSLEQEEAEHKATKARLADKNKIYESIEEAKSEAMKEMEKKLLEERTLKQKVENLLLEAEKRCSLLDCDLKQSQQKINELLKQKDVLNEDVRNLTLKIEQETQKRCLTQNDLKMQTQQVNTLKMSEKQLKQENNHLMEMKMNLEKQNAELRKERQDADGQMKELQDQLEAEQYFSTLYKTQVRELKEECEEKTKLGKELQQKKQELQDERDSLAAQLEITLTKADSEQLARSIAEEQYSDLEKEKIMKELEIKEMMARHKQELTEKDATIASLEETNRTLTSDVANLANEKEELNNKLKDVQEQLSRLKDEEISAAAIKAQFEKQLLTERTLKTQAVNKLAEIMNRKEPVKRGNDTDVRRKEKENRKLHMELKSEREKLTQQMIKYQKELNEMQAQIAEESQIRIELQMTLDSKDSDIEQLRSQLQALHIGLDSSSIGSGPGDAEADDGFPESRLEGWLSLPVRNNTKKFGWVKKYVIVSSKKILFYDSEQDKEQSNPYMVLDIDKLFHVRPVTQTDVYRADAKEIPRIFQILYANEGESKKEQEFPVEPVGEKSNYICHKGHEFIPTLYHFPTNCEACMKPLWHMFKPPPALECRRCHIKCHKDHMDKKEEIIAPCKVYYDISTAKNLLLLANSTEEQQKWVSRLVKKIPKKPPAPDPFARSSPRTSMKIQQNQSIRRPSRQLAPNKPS
# measurement protocol: Rho kinase assay (IMAP ROCK-II kit, fluorescence polarization)
# Format: biochemical
# experimental context: substrate 200 nM, ATP 10 μM, 60 min at 23° C.
Where a name gives a salt, the structure may show the parent alone.

{"compound": "CCCC/C=C/c1cnc2ccc(NCCCO)nn12 [Example 6, fumarate]", "target system": "ROCK 2 (Homo sapiens, UniProt O75116)", "relation operator": "=", "IC50 (µM)": 33}
{"compound": "COc1ccccc1-c1cnc2ccc(NCc3ccccn3)nn12 [Example 2, fumarate]", "target system": "ROCK 2 (Homo sapiens, UniProt O75116)", "relation operator": ">", "IC50 (µM)": 100}
{"compound": "C1=C(c2cnc3ccc(NCc4ccccn4)nn23)CCCC1 [Example 21, hydrochloride]", "target system": "ROCK 2 (Homo sapiens, UniProt O75116)", "relation operator": "=", "IC50 (µM)": 200}
{"compound": "CCCC/C=C/c1cnc2ccc(NCCCN)nn12", "target system": "ROCK 2 (Homo sapiens, UniProt O75116)", "relation operator": "=", "IC50 (µM)": 58}
{"compound": "Cc1cnc2ccc(NCc3ccccn3)nn12 [Example 15, hydrochloride]", "target system": "ROCK 2 (Homo sapiens, UniProt O75116)", "relation operator": "=", "IC50 (µM)": 16}
{"compound": "CCCC/C=C/c1cnc2ccc(N[C@H]3CC[C@@H](O)CC3)nn12 [Example 50, hydrochloride]", "target system": "ROCK 2 (Homo sapiens, UniProt O75116)", "relation operator": "=", "IC50 (µM)": 17}
{"compound": "CCCC/C=C/c1cnc2ccc(NCCN(CC)CC)nn12 [Example 40, hydrochloride]", "target system": "ROCK 2 (Homo sapiens, UniProt O75116)", "relation operator": ">", "IC50 (µM)": 100}
{"compound": "c1cncc(-c2cnc3ccc(N4CCCNCC4)nn23)c1 [Example 57, trihydrochloride]", "target system": "ROCK 2 (Homo sapiens, UniProt O75116)", "relation operator": "=", "IC50 (µM)": 23}
{"compound": "Cc1cnc2ccc(NCCN(C)C)nn12", "target system": "ROCK 2 (Homo sapiens, UniProt O75116)", "relation operator": "=", "IC50 (µM)": 79}
{"compound": "c1ccc(CNc2ccc3nccn3n2)nc1 [Example 33, hydrochloride]", "target system": "ROCK 2 (Homo sapiens, UniProt O75116)", "relation operator": "=", "IC50 (µM)": 13}
{"compound": "CCCC/C=C/c1cnc2ccc(N3CCOCC3)nn12 [Example 5, fumarate]", "target system": "ROCK 2 (Homo sapiens, UniProt O75116)", "relation operator": ">", "IC50 (µM)": 100}
{"compound": "CCCCC/C=C/c1cnc2ccc(NCCCN3CCOCC3)nn12 [Example 22, hydrochloride]", "target system": "ROCK 2 (Homo sapiens, UniProt O75116)", "relation operator": "=", "IC50 (µM)": 120}
{"compound": "CCCCC#Cc1cnc2ccc(NCCCN3CCOCC3)nn12 [Example 26, hydrochloride]", "target system": "ROCK 2 (Homo sapiens, UniProt O75116)", "relation operator": "=", "IC50 (µM)": 5.8}
{"compound": "c1cc2[nH]ncc2cc1-c1cnc2ccc(N3CCNCC3)nn12 [Example 51, dihydrochloride]", "target system": "ROCK 2 (Homo sapiens, UniProt O75116)", "relation operator": "=", "IC50 (µM)": 0.0035}

###

# target system: ROCK 2 (Homo sapiens)
# Construct: purchased Molecular Devices, Sunnyvale, Calif
# measurement protocol: Rho kinase assay (IMAP ROCK-II kit, fluorescence polarization)
# Type: biochemical
Where a name gives a salt, the structure may show the parent alone.
endpoint name: IC50 (µM)

{"compound": "NC(=O)c1ccc(-c2cnc3ccc(N4CCCNCC4)nn23)cc1 [Example 58, dihydrochloride]", "endpoint name": "IC50", "measured number": 16}
{"compound": "CCCC/C=C/c1cnc2ccc(NCCCN3CCCC3)nn12 [Example 47, dihydrochloride]", "endpoint name": "IC50", "measured number": 38}

###

This section lists IC50 readings for ROCK 1 (Homo sapiens, UniProt Q13464).
Structures can show the parent of a compound that is named as a salt.

{"compound": "CCCCC#Cc1cnc2ccc(NCCCN3CCOCC3)nn12 [Example 26, hydrochloride]", "relation operator": "=", "IC50 [µM]": 9}
{"compound": "CCCC/C=C/c1cnc2ccc(NCCCN3CCN(C)CC3)nn12 [Example 38, hydrochloride]", "relation operator": "=", "IC50 [µM]": 47}
{"compound": "CCCC/C=C/c1cnc2ccc(NCc3cccnc3)nn12", "relation operator": "=", "IC50 [µM]": 2.3}
{"compound": "CCCC/C=C/c1cnc2ccc(NC(CC)CO)nn12 (stereo not drawn)", "relation operator": "=", "IC50 [µM]": 78}
{"compound": "COCc1cnc2ccc(NCCCN3CCOCC3)nn12 [Example 30, hydrochloride]", "relation operator": ">", "IC50 [µM]": 100}
{"compound": "Cc1n[nH]c2ccc(-c3cnc4ccc(N5CCNCC5)nn34)cc12 [Example 52, trihydrochloride]", "relation operator": "=", "IC50 [µM]": 0.027}
{"compound": "CCCC/C=C\\c1cnc2ccc(NCCCN3CCOCC3)nn12 [Example 27, hydrochloride]", "relation operator": "=", "IC50 [µM]": 43}
{"compound": "CCC/C=C/c1cnc2ccc(NCCCN3CCOCC3)nn12 [Example 18, hydrochloride]", "relation operator": "=", "IC50 [µM]": 43}
{"compound": "CCCCC/C=C/c1cnc2ccc(NCCCN3CCOCC3)nn12 [Example 22, hydrochloride]", "relation operator": "=", "IC50 [µM]": 38}

###

# target system: ROCK 1 (Homo sapiens, UniProt Q13464)
# Sequence (Q13464 whole entry, species assumed): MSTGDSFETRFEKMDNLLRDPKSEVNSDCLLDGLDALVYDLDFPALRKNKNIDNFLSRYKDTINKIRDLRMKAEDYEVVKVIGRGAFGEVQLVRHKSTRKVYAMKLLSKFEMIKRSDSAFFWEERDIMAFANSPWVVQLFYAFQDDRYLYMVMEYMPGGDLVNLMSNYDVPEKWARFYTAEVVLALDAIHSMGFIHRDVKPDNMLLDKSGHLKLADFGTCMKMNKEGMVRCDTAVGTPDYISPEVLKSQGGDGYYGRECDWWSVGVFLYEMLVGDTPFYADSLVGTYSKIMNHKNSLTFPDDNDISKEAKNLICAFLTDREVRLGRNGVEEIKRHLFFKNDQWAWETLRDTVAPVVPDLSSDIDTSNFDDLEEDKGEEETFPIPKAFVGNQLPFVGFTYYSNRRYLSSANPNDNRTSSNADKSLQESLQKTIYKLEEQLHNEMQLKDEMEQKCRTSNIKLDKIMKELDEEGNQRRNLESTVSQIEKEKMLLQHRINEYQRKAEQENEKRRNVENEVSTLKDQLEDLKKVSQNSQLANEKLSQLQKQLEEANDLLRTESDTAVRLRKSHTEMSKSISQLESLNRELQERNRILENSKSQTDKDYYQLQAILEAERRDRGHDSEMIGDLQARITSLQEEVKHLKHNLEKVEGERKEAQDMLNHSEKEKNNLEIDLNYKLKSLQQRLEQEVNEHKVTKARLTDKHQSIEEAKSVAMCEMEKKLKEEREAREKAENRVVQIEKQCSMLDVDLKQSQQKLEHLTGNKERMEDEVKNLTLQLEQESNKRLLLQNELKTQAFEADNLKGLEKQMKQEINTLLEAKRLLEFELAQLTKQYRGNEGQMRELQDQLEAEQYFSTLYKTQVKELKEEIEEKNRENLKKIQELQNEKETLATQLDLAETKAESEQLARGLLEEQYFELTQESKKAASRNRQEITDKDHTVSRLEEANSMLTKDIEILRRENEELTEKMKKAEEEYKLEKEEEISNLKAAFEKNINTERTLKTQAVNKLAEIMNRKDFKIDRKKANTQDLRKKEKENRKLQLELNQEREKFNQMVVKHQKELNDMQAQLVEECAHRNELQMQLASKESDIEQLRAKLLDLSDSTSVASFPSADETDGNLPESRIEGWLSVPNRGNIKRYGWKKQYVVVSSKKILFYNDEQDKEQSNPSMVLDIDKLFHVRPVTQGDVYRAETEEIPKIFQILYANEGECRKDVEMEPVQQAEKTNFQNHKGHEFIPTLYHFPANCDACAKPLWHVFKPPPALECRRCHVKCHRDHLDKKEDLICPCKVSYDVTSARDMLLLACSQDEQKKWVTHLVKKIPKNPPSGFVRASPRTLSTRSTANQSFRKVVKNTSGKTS
pIC50: −log10 of the molar value. Counter-ions that a name gives are not always drawn.

{"compound": "CCCC/C=C/c1cnc2ccc(N[C@H]3CC[C@@H](O)CC3)nn12 [Example 50, hydrochloride]", "relation operator": "=", "pIC50": 5.22}
{"compound": "CCOCc1cnc2ccc(NCc3ccccn3)nn12 [Example 32, hydrochloride]", "relation operator": "<", "pIC50": 4.00}
{"compound": "Cc1cnc2ccc(NCc3ccccn3)nn12 [Example 15, hydrochloride]", "relation operator": "=", "pIC50": 4.17}
{"compound": "CCCCC#Cc1cnc2ccc(NCc3ccccn3)nn12 [Example 28, hydrochloride]", "relation operator": "<", "pIC50": 4.00}
